tested on: RSK4(Kin.Dom.2-C-terminal); construct: gene RPS6KA6; details: concentration: 1 μM, replicates: in singlicate; n = 1;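 further: KINOMEscan kinase panel screen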
Use Satisfied when the recorded %Inh is no lower than 10%; use Not satisfied when it is lower.

compound	subject-of-test	answer-label
Nc1nc(-c2ccc3c(N)n[nH]c3c2)cc(N2CCCCC2)n1	RSK4(Kin.Dom.2-C-terminal)	Not satisfied
O=C(Nc1ccccc1F)NC1CCN(c2ccnc(Nc3ccc(F)cc3)n2)C1 (stereo not shown)	RSK4(Kin.Dom.2-C-terminal)	Not satisfied
Oc1ccc2ncnc(Nc3ccc(OCc4ccccc4)cc3)c2c1	RSK4(Kin.Dom.2-C-terminal)	Not satisfied
COc1cc2ncnc(Nc3ccc(OCc4ccccc4Br)c(Cl)c3)c2cc1OC.Cl	RSK4(Kin.Dom.2-C-terminal)	Not satisfied
Cl.c1ccc(Cn2ncc3cc(Nc4ncnc5ccccc45)ccc32)cc1	RSK4(Kin.Dom.2-C-terminal)	Satisfied

In plain terms: is recorded %Inh at least 10% for CSc1nn2c(=O)cc(N3CCOCC3)nc2n1Cc1cccc(Cl)c1Cl ?
Not satisfied

# check: %Inh of Cc1ccc(NC(=O)c2cccc(C#N)c2)cc1-c1ccc(C(=O)Nc2ccncc2)cc1 is greater than or equal to 10%
Not satisfied

Could you verify whether the entry CCC(CC)(CC)n1cnc2c(N)ncnc21 shows %Inh of no less than 10%?
Not satisfied

Identify whether the reported %Inh of the following compound is 10% or greater: Cn1ccc2ncnc(Nc3ccc(Oc4cccc(Cl)c4)c(Cl)c3)c21
Satisfied

I'd appreciate it if you could say whether Cl.c1ccc(Cn2ccc3cc(Nc4ncnc5ccccc45)ccc32)cc1 has %Inh at least equal to 10%.
Satisfied

Threshold query (%Inh >= 10%) on COc1ccc(Nc2nccc(N3CCC(NC(=O)Nc4ccc5c(c4)OCO5)C3)n2)cc1 (stereo not shown)
Satisfied

Decide: is the reported value of %Inh for Clc1cc(Nc2ncnc3cc[nH]c23)ccc1OCc1ccccn1 equal to or greater than 10%?
Satisfied

---

tested on: CHEK1; conditions: concentration: 1 μM, replicates: in singlicate; n = 1
Property: %Inh; scope: individual compounds
Number only, in %; omit the unit.

Below are worked cases with known answers.
compound	measured-quantity	value-reported
OCCOCCn1ccc2ncnc(Nc3ccc(Oc4cccc(Cl)c4)c(Cl)c3)c21	%Inh	0
CS(=O)(=O)CCNCc1ccc(-c2ccc3ncnc(Nc4ccc(OCc5ccccc5)c(Cl)c4)c3c2)o1.Cl	%Inh	6
COc1ccc(Nc2nccc(N3CCC(NC(=O)c4cccc(NC(C)=O)c4)C3)n2)cc1 (stereo not shown)	%Inh	0

In one line, give reported %Inh of the entry CNc1nccc(-c2c(-c3ccc(F)cc3)ncn2C2CCN(C)CC2)n1 .
0

---

test system: EPHB4; details: concentration: 1 μM, replicates: in singlicate; n = 1
measured-quantity: %Inh (%)
Kindly provide the numeric value in % only, without the unit symbol.

Solved entries:
molecule	measured-quantity	value-reported
Cc1ccc(NC(=O)c2cccc(C#N)c2)cc1-c1ccc(C(=O)Nc2ccncc2)cc1	%Inh	25
Cn1cc(-c2ccc3c(c2)CCN3C(=O)Cc2cccc(C(F)(F)F)c2)c2c(N)ncnc21	%Inh	0
Cl.c1ccc(Cn2ncc3cc(Nc4ncnc5ccccc45)ccc32)cc1	%Inh	10
COc1ccc(NC(=O)Nc2ccc(C)c(-c3ccc(C(=O)Nc4ccncc4)cc3)c2)cc1	%Inh	13
Nc1nc(-c2cccnc2)c(-c2ccnc3ccccc23)s1	%Inh	11
Nc1nc(-c2ccc3c(N)n[nH]c3c2)cc(N2CCCCC2)n1	%Inh	8
CCCc1ccc(S(=O)(=O)NC2CCN(c3ccnc(Nc4ccc(OC)cc4)n3)C2)cc1 (stereo not drawn)	%Inh	7
O=C(Nc1ccccc1)Nc1ccc(Oc2ccc3nccn3n2)cc1	%Inh	7

Please look at the following molecule next.
Provide measured %Inh value, entry: Cc1ccc(C)c(NC(=O)NCCNc2ccnc(Nc3ccc(F)cc3)n2)c1
0

---

system: MTOR; conditions: concentration: 1 μM, replicates: in singlicate; n = 1
measured-quantity: %Inh
The reply must contain the numeric value and, after it, the unit.

Sample records with %Inh:
molecule	subject-of-test	%Inh
COc1ccc(Nc2nccc(N3CCC(NC(=O)c4cccc(NC(C)=O)c4)C3)n2)cc1 (stereo not drawn) [GSK1379732]	MTOR	8%
Fc1cccc(COc2ccc(Nc3ncnc4nn5ccccc5c34)cc2Cl)c1 [GW689066]	MTOR	3%

State its %Inh for this molecule: CC(C)(C)c1ccc(-n2cnc3c(N)ncnc32)cc1 [SKF-97263]
15%

---

test system: CDKL1; conditions: concentration: 1 μM, replicates: in singlicate; n = 1
measured-quantity: %Inh (%)
Dear colleague, please return just the value in %, with no unit written.

// below: answered compounds
compound	subject-of-test	%Inh [%]
Cc1cc(N2CCC(NS(=O)(=O)c3ccc(F)cc3)CC2)nc(Nc2cccc(C#N)c2)n1.O=C(O)C(F)(F)F	CDKL1	0
Cc1ccc(O)cc1Nc1cc(C(F)(F)F)nc2ccc(-c3ccncc3)cc12	CDKL1	20
CSc1nn2c(=O)cc(N3CCOCC3)nc2n1Cc1cccc(Cl)c1Cl	CDKL1	0
CS(=O)(=O)CCNCc1ccc(-c2ccc3ncnc(Nc4ccc(OCc5ccccc5)c(Cl)c4)c3c2)o1.Cl	CDKL1	0

Return reported %Inh. Input compound: N#Cc1ccc(Oc2ccc(Nc3ncnc4cc[nH]c34)cc2Cl)cc1
27

Read off the recorded %Inh for Fc1ccc(Nc2nccc(-c3c(-c4ccc(Cl)cc4)nn4ncccc34)n2)cc1F
17

Quick one: give measured %Inh for O=C(Nc1ccccc1F)NC1CCN(c2ccnc(Nc3ccc(F)cc3)n2)C1 (stereo not drawn)
18

State its %Inh: Cl.Cn1ccc(-c2cccc(Nc3ccnc4cc(-c5nccs5)ccc34)c2)n1
0

Return %Inh (reported value) for this compound: Cn1ccc2ncnc(Oc3ccc(NC(=O)Nc4cccnc4)c(Cl)c3)c21
8

Give %Inh for NC(=O)c1sc(-n2cnc3ccccc32)cc1OCc1ccccc1F
10

# return recorded %Inh for entry Cl.O=S(=O)(c1cccc(F)c1)c1ccc(Nc2ncnc3cc(Br)sc23)cc1Cl
19

Give recorded %Inh. Fc1ccc(-c2ncn(CCCNCc3ccccc3)c2-c2ccncc2)cc1
0

Return the recorded %Inh value; entry: CC(C)(C)c1ccc(-n2cnc3c(N)ncnc32)cc1
0

Give %Inh for COc1ccc(-c2oc3ncnc(N)c3c2-c2ccc(OC)cc2)cc1
5

---

system: CAMK1; settings: concentration: 1 μM, replicates: in singlicate; n = 1
Threshold check on %Inh: strictly below 3% is Condition met; on or above 3% is Condition not met.

Before answering, review these 3 worked examples.
compound	subject-of-test	answer-label
O=C(Nc1ccccc1F)NC1CCN(c2ccnc(Nc3ccc(F)cc3)n2)C1 (centres unmarked)	CAMK1	Condition met
Cn1ccc2ncnc(Nc3ccc(Oc4cccc(Cl)c4)c(Cl)c3)c21	CAMK1	Condition not met
Cl.Fc1ccccc1COc1ccc(Nc2ncnc3ccc(-c4nnc(C(F)(F)F)o4)cc23)cc1Cl	CAMK1	Condition not met

Please look at the following compound next.
In plain terms, does CN1c2ccc(-c3ccc(C(=O)NCCO)cc3)cc2-c2[nH]ncc2S1(=O)=O come in under 3% for %Inh?
Condition not met

---

tested on: SIK2; conditions: concentration: 1 μM, replicates: in singlicate; n = 1
measured-quantity: %Inh
Units required after the number.

compound	%Inh
Clc1ccc(-c2cc(-c3c[nH]nc3-c3ccccn3)ccn2)cc1	0%
NC(=O)c1sc(-n2cnc3ccccc32)cc1OCc1ccccc1F	0%
C[C@@H]1CCN(C(=O)CO)C[C@@H]1N(C)c1ncnc2[nH]ccc12	0%
CN1c2ccc(-c3ccc(C(=O)NCCO)cc3)cc2-c2[nH]ncc2S1(=O)=O	16%

Then this compound:
Output %Inh of CC(C)(C)OC(=O)NC1CCCN(c2cc(-c3ccc4c(N)n[nH]c4c3)nc(N)n2)C1 (centres unmarked)
0%

---

tested on: PRKG2; conditions: concentration: 1 μM, replicates: in singlicate; n = 1
measured-quantity: %Inh (%)
Write the value in % as a bare number.

molecule	subject-of-test	unit-tag	value-reported
Cn1ccc2ncnc(Oc3ccc(NC(=O)Nc4cccnc4)c(Cl)c3)c21	PRKG2	%	0
Nc1nc(-c2ccccn2)c(-c2ccnc3ccccc23)s1 [GW548057]	PRKG2	%	9
C[C@H]1CC[C@@H](C(=O)Nc2ccccc2)CN1c1cc(-c2ccc3c(N)n[nH]c3c2)nc(N)n1 [GSK2283293]	PRKG2	%	4
COC(=O)c1c(-c2ccccc2)c2cc(Cl)ccc2c(=O)n1Cc1ccc(S(C)(=O)=O)cc1	PRKG2	%	12
Cl.O=S(=O)(c1cccc(F)c1)c1ccc(Nc2ncnc3cc(Br)sc23)cc1Cl [GSK306886]	PRKG2	%	23

Provide measured %Inh value, entry: NC(=O)c1sc(-n2cnc3ccccc32)cc1OCc1ccccc1F [GSK1024306]
0

State its %Inh: COc1cc2ncnc(Nc3ccc(OCc4ccccc4Br)c(Cl)c3)c2cc1OC.Cl [GI261590]
0

For the molecule OCCOCCn1ccc2ncnc(Nc3ccc(Oc4cccc(Cl)c4)c(Cl)c3)c21 , give its measured %Inh value.
0

Quick one: give measured %Inh for O=C(Nc1ccccc1)Nc1ccc(Oc2ccc3nccn3n2)cc1
0
